Ref: paper PMC10808794

- Test system: SVMP activity of Bitis arietans venom
- assay.protocol: SVMP fluorogenic substrate assay, B. arietans venom
- Assay type: biochemical
- particulars: 40-min endpoint, read-out: EC50, known inhibitors validation screen
pEC50: −log10 of the molar value. Where a name gives a salt, the structure may show the parent alone.
# if value of pEC50 reaches 6, tag yes (1); if it stays below, tag no (0)

Reference set, count: 3
>  <molecule>
OCC(S)CS (centres unmarked) [dimercaprol, 2,3-dimercapto-1-propanol]

>  <class>
no (0)

$$$$
>  <molecule>
CNC(=O)[C@H](Cc1ccccc1)NC(=O)[C@H](CC(C)C)[C@H](CSc1cccs1)C(=O)NO [batimastat]

>  <class>
yes (1)

$$$$
>  <molecule>
CC1(C)SCCN(S(=O)(=O)c2ccc(Oc3ccncc3)cc2)[C@H]1C(=O)NO [prinomastat, prinomastat hydrochloride]

>  <class>
yes (1)

$$$$

Qu. Entry CNC(=O)[C@@H](NC(=O)[C@H](CC(C)C)[C@H](O)C(=O)NO)C(C)(C)C [marimastat] : is its pEC50 no less than 6?
Ans. yes (1)

###

Can you tell me EC50 for the items I'm about to list?
- Test system: SVMP activity of five viper venoms
- assay.protocol: SVMP fluorogenic substrate assay, summary across the panel of five viper venoms
- Assay type: biochemical
- particulars: validation screen, five venoms; read-out: EC50 range across all venoms, known inhibitors

>  <compound>
O=S(=O)(O)CC(S)CS (centres unmarked)

>  <measured.metric>
EC50

>  <readout.value>
0.527 to 5.28 µM

$$$$

In the following, a different compound is considered.
Qu. Any idea what its EC50 is? The compound is OCC(S)CS (centres unmarked)
Ans. 0.558 to 6.86 µM

###

- Tested on: SVMP activity of five viper venoms
- assay.protocol: SVMP fluorogenic substrate assay, summary across the panel of five viper venoms
- Type: biochemical
- particulars: validation screen, five venoms; read-out: average EC50 across all venoms
Please provide measured EC50 for the entries that follow.
Give bare numbers, in µM.

>  <molecule>
OCC(S)CS (centres unmarked) [dimercaprol, 2,3-dimercapto-1-propanol]

>  <EC50 (µM)>
3.14

$$$$

The record that follows has no EC50 shown yet.
Qu. Return reported EC50; argument: O=S(=O)(O)CC(S)CS (centres unmarked) [DMPS]
Ans. 2.25

###

- System: SVMP activity of Bothrops jararaca venom
- assay.protocol: SVMP fluorogenic substrate assay, B. jararaca venom
- Type: biochemical
- particulars: 30-min endpoint, read-out: EC50, known inhibitors validation screen
Counter-ions that a name gives are not always drawn.
Response field label takes YES when EC50 is strictly below 10 nM and NO in all other cases.

>  <molecule>
O=S(=O)(O)CC(S)CS (centres unmarked) [DMPS]

>  <class>
NO

$$$$
>  <molecule>
CNC(=O)[C@H](Cc1ccccc1)NC(=O)[C@H](CC(C)C)[C@H](CSc1cccs1)C(=O)NO [batimastat]

>  <class>
YES

$$$$
>  <molecule>
CNC(=O)[C@@H](NC(=O)[C@H](CC(C)C)[C@H](O)C(=O)NO)C(C)(C)C [marimastat]

>  <class>
YES

$$$$
>  <molecule>
CC1(C)SCCN(S(=O)(=O)c2ccc(Oc3ccncc3)cc2)[C@H]1C(=O)NO [prinomastat, prinomastat hydrochloride]

>  <class>
YES

$$$$

Lab note: next molecule to report on.
Qu. # strict comparison: is reported EC50 < 10 nM? input = OCC(S)CS (centres unmarked) [dimercaprol, 2,3-dimercapto-1-propanol]
Ans. NO
